- TARGET: T1, PEAK2^IDR1 (residues 802-1406), from insect cells (human, UniProt Q86YV5 802-1406, phosphorylation of the tandem site 14-3-3 motif (RAASSP) found by proteomic analysis; biotin (EZ-Link NHS-PEG4-Biotin, 1:1 molar ratio))
- T1 construct: human PEAK2 (SgK223, PRAG1), UniProt Q86YV5, residues 802-1406; Purifies as a homodimer
- T1 sequence (looked up): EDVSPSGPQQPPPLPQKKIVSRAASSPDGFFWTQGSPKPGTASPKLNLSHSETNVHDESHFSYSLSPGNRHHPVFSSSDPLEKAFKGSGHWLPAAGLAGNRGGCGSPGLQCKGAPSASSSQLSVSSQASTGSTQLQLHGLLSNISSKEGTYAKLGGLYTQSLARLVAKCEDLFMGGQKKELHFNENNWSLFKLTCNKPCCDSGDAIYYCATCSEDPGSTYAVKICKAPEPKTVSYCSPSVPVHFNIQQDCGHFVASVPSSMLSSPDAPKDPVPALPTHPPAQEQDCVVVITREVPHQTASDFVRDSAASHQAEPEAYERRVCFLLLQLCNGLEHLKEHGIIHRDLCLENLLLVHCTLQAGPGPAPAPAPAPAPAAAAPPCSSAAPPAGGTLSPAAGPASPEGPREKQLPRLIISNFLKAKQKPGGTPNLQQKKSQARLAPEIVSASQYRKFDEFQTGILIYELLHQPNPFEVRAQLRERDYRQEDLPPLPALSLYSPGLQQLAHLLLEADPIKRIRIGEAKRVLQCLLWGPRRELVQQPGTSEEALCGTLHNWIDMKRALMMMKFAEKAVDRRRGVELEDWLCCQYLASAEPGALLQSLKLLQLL
- EXPERIMENT_SUMMARY: SPR; biotinylated PEAK proteins (with or without Src phosphorylation) captured with a biotin CAPture kit, CrkII NSH3 as analyte; Biacore 8K+, 20 °C, HBS-TP (150 mM NaCl); 1 M NaCl regeneration; steady state
- MEASUREMENT_CONDITIONS: both partners purified

- BINDER: "CrkII N-terminal SH3 domain (CrkII^NSH3, residues 134-191) (domain or fragment, human, UniProt P46108-1 134-191, looked up, human CrkII NSH3 domain, UniProt P46108-1, residues 134-191; Amine coupled to a CM5 chip in a2; analyte in a4; in the syringe in ITC) AEYVRALFDFNGNDEEDLPFKKGDILRIRDKPEEQWWNAEDSEGKRGMIPVPYVEKYR"
  Kd [µM]: 4.79
